# EXPERIMENT_NOTES: soluble on expression in E. coli; label from the status in PepcDB or PDB records

>  <CONSTRUCT_SEQUENCE>
MKAERILGALYGQALGDAMGMPSELWPRTRVKAHFGWIDRFLPGPKENNAACYFNRAEFTDDTAMALCLADALLECEGNIDPEIIGRNILAWAERFDAFNKNVLGPTSKIALNAIRDGKPIAALENNGVTNGAAMRVSPLGCLLPPTNLTAFIAEVALASSPTHKSDLAVAGAVVVAWAVSRAVNGDTWQSIADSLPAVAHQAQTARITTFSASLSARLELALNIVRHADGVESASEQLYQIIGAGTSTIESVPCAIAMVELANTDPNRCAVLCANLGGDTDTIGAMATAICGALHGVSAINPQLKQTLDEVNQLDFARYAVALASYRQRREAL

>  <soluble on expression in E. coli>
not soluble

$$$$
>  <CONSTRUCT_SEQUENCE>
GPGSMDQDLSVCEQEYRKLLDPEEPLFSRTRELYRLKESILRTPAGVHVLAKAVDTTNSVLLQHELVYNLGQSAMVEACPHLERFIRAVGKYDIVTRHEAVEALGAIGDPACIPLLRHFMEPANEPEAAIRESCELALKRIEMLEEKGKEAVGPAANCPFVSIDPAPAFNGTNTGGSAPYTVSELENLLCDTTGAVSLWLRYQAMFTLRNIGTPEAVAALSRALRQDNTSALLRHEVAFVLGQLEHPASQPALLDALRDEHEAPMVRHEAAEALGAIADPKTLPALEEYAKHKEAIVRDSCVVALEMHKYWSQFNNQRIQH

>  <soluble on expression in E. coli>
soluble

$$$$
>  <CONSTRUCT_SEQUENCE>
MSLKIKHEHIRMAMNAWAHPDGEKVPAAEITRAYFELGMTFPELYDDSHPEALARNTQKIFRWVEKDTPDAVEKIQALLPAIEKSMPPLLVARMRSHSSAYFRELVETRERLVRDADDFVAVAIAGFNQMNRGGPAGNIVAVHEGHHHHHH

>  <soluble on expression in E. coli>
soluble

$$$$
>  <CONSTRUCT_SEQUENCE>
MQYVKIKDAIVEQIDAGMLMPRQKLPAERKLAESFDTTRVTLREALSLLEAEGKIYREDRRGWFISPAPLRYDPTQTLNFTNMALAQNRQPKTELVSAKAVIANKQATRLLKLKPFSDVYRVDRVRYLDNRPVVYVTNYIRPELFPNLLDFDLSQSLTDLYREHYATQYQTIHYRISTSSLLGEMAQALRATSGTPAMVVERVNYNQKGELIDCDIEYWRHDAITIESIAELKR

>  <soluble on expression in E. coli>
not soluble

$$$$
>  <CONSTRUCT_SEQUENCE>
MGSDKIHHHHHHMNAETPQNLMVASLQAPPVRTVVADPQSVHAAIESRFCCREFLADPVERETMERILRVASWAPSGSNNQPWKVYVVQGASRAALSQKVRAAQDALSQDPTLADNYREPYQYYPVEWVSPYIERRRACGFGLYGVLNIARGDRVRMNEQLLRNFDFFGAPVGIFFTNDEILAEGALVDTAMFVQNVMLAARAEGLHTCVQAAWNRFSSVVLPHIGAQGERLVCALALGHADVDAPVNTFRPDRADPASFTAWLD

>  <soluble on expression in E. coli>
not soluble

$$$$
>  <CONSTRUCT_SEQUENCE>
MAHHHHHHMEDGEALDLQDALKPEVKERPVRLIKIERHDGTKAFLNSVIEMAQVVLDNMPPDACYKDIAIKLKTKLDEVEKGTWHVIVGSHFGANVTNDSETLVNFKIDEMHILLFRSGPPERPMSLNDEGS

>  <soluble on expression in E. coli>
soluble

$$$$
>  <CONSTRUCT_SEQUENCE>
MGSDKIHHHHHHMKRCPNCGCRGQAAFPEHVPGQVQYGPRLHAFTTLLNVGHFIPLERVTQLTDALFGASISDGTVALNINLASERLEPFEDDLKTGLRQQAVLHADETGAKVNGKLNWFHVACFARGTLYTLHEKRGYAALEAAGVLTDFTGVVVHDAWSTYFRLPGEHALCNAHLLRELRKLDEHDRQPWAGELRRALQQVYHAQKTGTLTDEQRAVFYTRFDELVLAGLEANPVQEPVPKRRGKPKQLPGRNLALRCQQHRAAMLLFLERADVPFDNNQAERDIRMACVKRKVSGGFRSEVGGQAFCRVRSFISTLQKQGLSVWTGLVDVFRGVLPKLDFSC

>  <soluble on expression in E. coli>
not soluble

$$$$
>  <CONSTRUCT_SEQUENCE>
SNQEKLAKLQAQVRIGGKGTARRKKKVVHRTATADDKKLQSSLKKLAVNNIAGIEEVNMIKDDGTVIHFNNPKVQASLSANTFAITGHAEAKPITEMLPGILSQLGADSLTSLRKLAEQFPRQVLDSKAPKPEDIDEEDDDVPDLVENFDEASKNEAN

>  <soluble on expression in E. coli>
soluble

$$$$
>  <CONSTRUCT_SEQUENCE>
MAHHHHHHMQQRKTNKLFYPVAFLHFFLGEDNERRMFRRLSTSTLAAAAVRFYTPSESLKKLYTSDFDKTEFPLSIVPSDSVLFAKFLYKAAEPNNSFDAILKDFQTIAAASSSLPIFWERTAVVEDVAEFKKLSEPMFFTLVWMQKNGMLDLIPEVSEIYETYVNAKMKRIVAKIYVAPGKEGEVGEAKRVAQELHKEAKELDGYTLVFKTVVDRSIVTGFAVELAGQYVNRAEGHKSHAPAADEADYTTIPAPRLPKTVWEDNIETEVLCRYLESLAEYDAEEAKHGV

>  <soluble on expression in E. coli>
not soluble

$$$$
>  <CONSTRUCT_SEQUENCE>
MGHHHHHHSHMLDVYACHCTLCQKWSGGIAMYLEACGQPQLAPLSPEPPYFSSSSRGERYFCSGCGCPLWFRLTDTDRYFIPWTLLELNEVDRRRLILAAEIYTETQPAFWRLTGQYARLSGKEVEEMDSPCQLAH

>  <soluble on expression in E. coli>
not soluble

$$$$
>  <CONSTRUCT_SEQUENCE>
MSLDTSAPQKYRRILLKVSGEVLMGDTPYGIDTNTVQSVAEDVAEIVKSGVELCLVIGGGNIFRGMAGAAKGMERSSADYMGMLATVMNALAMQDALERIGVETRVQSAIPMATVCEPYIRRRAQRHLEKGRVVIFAAGTGNPFFTTDTAAALRAAEMQCDALFKGTSVDGVYTADPKKDPTAQRYDRLSYMDVLAKDLRVMDASAVALMRDSNIPIVVFSIKGRGNLLTVLRGEGTHTVVAEDEGHHHHHH

>  <soluble on expression in E. coli>
soluble

$$$$
>  <CONSTRUCT_SEQUENCE>
EVKGIGEYKILGESIDDAAGEAFDKTAKLMGLDYPGGPLLSKLAEKGTPGRFKFPRPMTNVPGLDMSFSGLKTFTANTIAANGDDEQTRADIAYAFEEAVCATLAIKCKRALEQTGMKRIVIAGGVSANRRLRAELEKLAKKIGGEVYYPRTEFCTDNGAMIAYAGMQRLKNGEVADMSVEARPRWPIDQLTPIA

>  <soluble on expression in E. coli>
not soluble

$$$$

###

# EXPERIMENT_NOTES: soluble on expression in E. coli; label from the status in PepcDB or PDB records

>  <CONSTRUCT_SEQUENCE>
MDAENEDFDGAEDSDHTDNDKKEDELSLDNVLRLGGTKADYVMLAGISDTTELINGGKKVIIDDLEEGELEDFIKQLGIRAYADQQIIQDEEDPASSEPTQKEGKKAKGSKVKEDAAPNVKNKVTPSTQATKTSVQSTNLANATGKKAKQKPANLFEFIPRQFLLIKPGGKWFDIEYTSEGTSVAQNESLTCQYKALAQKLYENETALYKSKKSLQKGANSAWMKTRKLRTFSQHPFEELEEKSSGNKDTRDRRLILWYFEHQLKLQIADFVVTLDELAHDMVEATKMRALTTAYELLCNQPEQEKLLLVQIVNKLEDA

>  <soluble on expression in E. coli>
soluble

$$$$
>  <CONSTRUCT_SEQUENCE>
MGSDKIHHHHHHMTVRTRVTDLLEIEHPILMGGMAWAGTPTLAAAVSEAGGLGIIGSGAMKPDDLRKAISELRQKTDKPFGVNIILVSPWADDLVKVCIEEKVPVVTFGAGNPTKYIRELKENGTKVIPVVASDSLARMVERAGADAVIAEGMESGGHIGEVTTFVLVNKVSRSVNIPVIAAGGIADGRGMAAAFALGAEAVQMGTRFVASVESDVHPVYKEKIVKASIRDTVVTGAKLGHPARVLRTPFARKIQEMEFENPMQAEEMLVGSLRRAVVEGDLERGSFMVGQSAGLIDEIKPVKQIIEDILKEFKETVEKLRGYIEE

>  <soluble on expression in E. coli>
soluble

$$$$
